target: MAGI2_3, Q86UL8; test: holdup assay; design: key: below the threshold = too weak to quantify, mostly under pKd 3.1 to 4; details: plain residues with an end cap or a label only (N-terminal biotin on a linker: ado-ado)
Sequence (Q86UL8 600-682): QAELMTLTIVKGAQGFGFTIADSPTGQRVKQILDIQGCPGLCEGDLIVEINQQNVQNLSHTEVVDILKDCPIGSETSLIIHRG

{"columns": ["Binder", "pKd"],
 "data": [
  ["QRPYRRGSEI [KCNJ18, B7U540]", "below the threshold"],
  ["RSSGGDDFWF [KCNV1, Q6PIU1]", "below the threshold"],
  ["PYPTADHMLA [JUP, P14923]", "below the threshold"]
]}
